Please provide measured Actimood score for the entries that follow.
System: subject's mood
EXPERIMENTAL PROTOCOL: Actimood scoring (correlation of EmoChar and IRT values)
Type: in vivo, human
TEST PARAMETERS: energizing mood (Table 7); scale 0 (low impact) to 3 (high impact)
Give bare numbers.

Here is how some molecules turned out for Actimood score.
CC1=CC(C)C(C=O)CC1 (stereo not shown) [VERTOCITRAL] ... 1
CCCCCCOC(C)=O [HEXYL ACETATE, hexyl acetate] ... 1
C=CC(C)(O)CCC=C(C)CC (mixture of isomers) [ETHYL LINALOOL, (6E)-3,7-dimethylnona-1,6-dien-3-ol] ... 1
CC(C)=CCC/C(C)=C/C=O [CITRAL FF, (2E)-3,7-Dimethylocta-2,6-dienal] ... 3
Cc1ccc2c(c1)OCC(=O)CO2 [CALONE, 7-methyl-1,5-benzodioxepin-3-one] ... 3
C=CC(C)CCCC(C)(C)O (stereo not shown) [DIHYDRO MYRCENOL, 2,6-dimethyloct-7-en-2-ol] ... 3

Enquiry: # query: Actimood score of entry COC(OC)C(C)(C)CC=C(C)C [AMAROCIT ®, 6,6-Dimethoxy-2,5,5-trimethylhex-2-ene]
Return: 3

* * *

System: subject's mood
EXPERIMENTAL PROTOCOL: Actimood scoring (correlation of EmoChar and IRT values)
Type: in vivo, human
TEST PARAMETERS: joyful mood (Table 6); scale 0 (low impact) to 3 (high impact)
Please provide measured Actimood score for the entries that follow.
Answers are plain numbers.

CCc1occc(=O)c1O [ETHYL MALTOL, 2-ethyl-3-hydroxy-pyran-4-one] ... 3
CCCCC[C@@H]1C(=O)CC[C@H]1CC(=O)OC (racemic) [HEDIONE] ... 0
CCCCCCOC(C)=O [HEXYL ACETATE, hexyl acetate] ... 2

Items follow; give Actimood score for each.
1. C=CC(C)(O)CCC=C(C)CC (mixture of isomers) [ETHYL LINALOOL, (6E)-3,7-dimethylnona-1,6-dien-3-ol]
2. CC/C=C\CCOC(=O)OC [LEAFOVERT ®, (Z)-Hex-3-en-1-yl methyl carbonate]
3. CC(=O)/C=C/C1=C(C)CCCC1(C)C [IONONE BETA]
4. COc1ccc(CCC(C)=O)cc1 [FRAMBINON ®, Methoxyphenylbutanone]

Return:
1: 2; 2: 3; 3: 3; 4: 3
